biological target: p110 δ (RAJI cells) (Homo sapiens (Human), UniProt O00329); assay: PI3K-δ selective cellular assay: phospho-AKT in anti-human IgM stimulated RAJI cells; details: serum-starved RAJI cells stimulated with anti-human IgM
Sequence (O00329 whole entry): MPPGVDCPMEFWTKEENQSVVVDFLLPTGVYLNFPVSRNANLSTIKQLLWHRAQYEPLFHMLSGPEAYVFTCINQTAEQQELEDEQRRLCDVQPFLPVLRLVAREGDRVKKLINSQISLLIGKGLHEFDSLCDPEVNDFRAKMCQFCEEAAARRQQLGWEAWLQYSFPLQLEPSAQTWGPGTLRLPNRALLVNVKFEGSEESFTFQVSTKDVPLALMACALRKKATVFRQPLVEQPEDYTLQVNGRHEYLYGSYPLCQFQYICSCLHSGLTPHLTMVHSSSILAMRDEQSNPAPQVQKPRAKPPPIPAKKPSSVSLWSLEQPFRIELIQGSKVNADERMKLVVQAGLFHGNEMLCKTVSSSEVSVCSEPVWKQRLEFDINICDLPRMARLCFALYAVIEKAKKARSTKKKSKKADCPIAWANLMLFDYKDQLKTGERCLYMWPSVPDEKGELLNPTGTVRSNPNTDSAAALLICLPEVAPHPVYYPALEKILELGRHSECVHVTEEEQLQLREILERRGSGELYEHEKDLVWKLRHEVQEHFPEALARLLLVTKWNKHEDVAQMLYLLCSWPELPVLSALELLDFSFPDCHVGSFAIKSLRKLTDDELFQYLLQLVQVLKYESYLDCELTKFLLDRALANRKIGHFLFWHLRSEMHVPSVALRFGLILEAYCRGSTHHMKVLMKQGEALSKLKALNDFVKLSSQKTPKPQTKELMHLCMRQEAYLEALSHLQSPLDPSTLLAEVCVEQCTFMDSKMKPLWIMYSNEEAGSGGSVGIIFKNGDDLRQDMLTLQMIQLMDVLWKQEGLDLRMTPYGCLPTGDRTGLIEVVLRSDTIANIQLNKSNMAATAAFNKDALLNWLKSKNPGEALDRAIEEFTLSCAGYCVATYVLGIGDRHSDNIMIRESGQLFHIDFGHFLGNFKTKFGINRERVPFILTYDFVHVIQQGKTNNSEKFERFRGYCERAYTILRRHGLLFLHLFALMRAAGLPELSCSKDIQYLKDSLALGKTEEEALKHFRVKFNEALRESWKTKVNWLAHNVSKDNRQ
Sequence (P27986 whole entry partner): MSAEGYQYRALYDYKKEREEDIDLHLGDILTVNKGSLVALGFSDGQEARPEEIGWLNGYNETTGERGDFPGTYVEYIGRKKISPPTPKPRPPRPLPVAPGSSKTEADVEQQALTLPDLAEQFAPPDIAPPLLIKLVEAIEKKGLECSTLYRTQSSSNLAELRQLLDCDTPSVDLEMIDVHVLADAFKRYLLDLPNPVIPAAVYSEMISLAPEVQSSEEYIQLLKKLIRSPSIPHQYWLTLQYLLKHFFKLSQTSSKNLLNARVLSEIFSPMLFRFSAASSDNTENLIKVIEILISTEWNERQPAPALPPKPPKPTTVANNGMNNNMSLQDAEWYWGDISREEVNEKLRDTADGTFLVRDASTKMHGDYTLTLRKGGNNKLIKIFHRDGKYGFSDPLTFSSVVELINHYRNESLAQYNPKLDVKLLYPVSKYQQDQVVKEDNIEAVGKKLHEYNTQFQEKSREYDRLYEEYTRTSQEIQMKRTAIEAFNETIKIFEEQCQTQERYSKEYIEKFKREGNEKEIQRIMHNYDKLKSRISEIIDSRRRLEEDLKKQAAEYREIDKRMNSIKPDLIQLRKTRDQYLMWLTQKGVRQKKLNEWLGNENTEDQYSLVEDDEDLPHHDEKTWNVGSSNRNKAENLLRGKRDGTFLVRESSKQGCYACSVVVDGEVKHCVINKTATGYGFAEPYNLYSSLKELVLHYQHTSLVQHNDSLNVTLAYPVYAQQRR

- Compound: "C[C@H](NC(=O)c1c(N)nn2cccnc12)c1nc2c(Cl)cccc2c(=O)n1-c1ccccc1"
  IC50: "100 to 500 nM"
- Compound: "C[C@H](NC(=O)c1c(N)nn2cccnc12)c1cc2cccc(Cl)c2c(=O)n1-c1cccnc1"
  IC50: "100 to 500 nM"
- Compound: "C[C@H](NC(=O)c1nccnc1N)c1cc2cccc(C(F)(F)F)c2c(=O)n1-c1ccccc1"
  IC50: "10 to 100 nM"
- Compound: "C[C@H](NC(=O)c1c(N)nn2cccnc12)c1nc2cccc(Cl)c2c(=O)n1-c1ccc(F)cc1"
  IC50: "10 to 100 nM"
